Where these numbers come from: patent US7122570B2

Observed IC50 for hGnRH-Receptor (Homo sapiens, UniProt P30968), reported per entry below.
reported-endpoint: IC50 (nM)

{"columns": ["compound", "units-label", "IC50"],
 "data": [
  ["CC(C)C(NC(=O)C1(NC(=O)Cc2ccc3ccccc3c2)CCc2[nH]c3ccccc3c2C1)C(N)=O (stereo not shown) [Compound 161b]", "nM", 3700]
]}

a. COc1cccc2c3c([nH]c12)CC[C@](NC(=O)Cc1ccc(Cl)cc1)(C(=O)N1CCC[C@H]1C(N)=O)C3 [Compound 189a]
b. CC[C@H](C)[C@H](NC(=O)OCc1ccccc1)C(=O)N[C@]1(C(=O)N[C@H](C(N)=O)C(C)C)CCc2[nH]c3c(OC)cccc3c2C1 [Compound 147a]
c. CC[C@H](C)[C@H](NC(=O)CCc1ccccc1)C(=O)N[C@]1(C(=O)N[C@H](C(=O)N[C@@H](CC(N)=O)C(N)=O)C(C)C)CCc2[nH]c3ccccc3c2C1 [Compound 22]
Task: Order field: IC50 | Direction: descending (largest first) List each label, following the requested order.
Output: c, a, b
(c: 2000 nM, a: 700 nM, b: 76 nM)

* * *

# target-of-assay: GnRH receptor (Homo sapiens, UniProt P30968)
# Sequence (P30968 whole entry): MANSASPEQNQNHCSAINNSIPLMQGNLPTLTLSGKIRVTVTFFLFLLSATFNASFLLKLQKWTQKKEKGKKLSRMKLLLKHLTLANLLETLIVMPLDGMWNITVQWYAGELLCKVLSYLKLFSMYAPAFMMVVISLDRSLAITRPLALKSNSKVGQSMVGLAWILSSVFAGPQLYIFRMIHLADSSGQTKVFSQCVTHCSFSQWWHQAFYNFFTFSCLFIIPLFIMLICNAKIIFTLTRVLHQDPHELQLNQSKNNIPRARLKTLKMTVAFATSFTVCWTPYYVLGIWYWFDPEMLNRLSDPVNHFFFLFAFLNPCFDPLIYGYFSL
# method-notes: Ca2+ release, human
# protocol-conditions: read-out: Ca^2+ Release Human IC50
reported-endpoint: IC50 (µM)

{"columns": ["compound", "target-of-assay", "IC50 [µM]"],
 "data": [
  ["CC[C@H](C)[C@H](NC(=O)OCc1ccccc1)C(=O)N[C@]1(C(=O)N[C@H](C(=O)Nc2ccc(C(N)=O)cc2)C(C)C)CCc2[nH]c3ccccc3c2C1", "GnRH receptor (Homo sapiens, UniProt P30968)", 1],
  ["Clc1cc(Cl)c2[nH]c3c(c2c1)CC(CCCc1ccccc1)(CNCc1ccccn1)CC3 (stereo not drawn)", "GnRH receptor (Homo sapiens, UniProt P30968)", 3],
  ["COc1cccc2c3c([nH]c12)CC[C@](NC(=O)Cc1ccc(Cl)cc1)(C(=O)N1CCC[C@H]1C(N)=O)C3 [Compound 189a]", "GnRH receptor (Homo sapiens, UniProt P30968)", 0.5],
  ["CC[C@H](C)[C@H](NC(=O)CCc1ccccc1)C(=O)N[C@]1(C(=O)N[C@H](C(=O)N[C@@H](CC(N)=O)C(N)=O)C(C)C)CCc2[nH]c3ccccc3c2C1", "GnRH receptor (Homo sapiens, UniProt P30968)", 1]
]}

1. CC(C)[C@H](NC(=O)[C@@]1(NC(=O)Cc2ccc(F)cc2)CCc2[nH]c3ccccc3c2C1)C(N)=O
2. CC(C)[C@@H](CO)NCC1(CCCc2ccccc2)CCc2[nH]c3ccccc3c2C1 (stereo partly drawn)
Task: Hey, which is lower on measured IC50, 1 or 2 ? When you have decided, please share the label of that item.
Output: 1
